Where do the numbers come from? From patent US11723929B2.

UniProt:P34913 data, read-out log10(IC50)
Sequence (P34913 whole entry): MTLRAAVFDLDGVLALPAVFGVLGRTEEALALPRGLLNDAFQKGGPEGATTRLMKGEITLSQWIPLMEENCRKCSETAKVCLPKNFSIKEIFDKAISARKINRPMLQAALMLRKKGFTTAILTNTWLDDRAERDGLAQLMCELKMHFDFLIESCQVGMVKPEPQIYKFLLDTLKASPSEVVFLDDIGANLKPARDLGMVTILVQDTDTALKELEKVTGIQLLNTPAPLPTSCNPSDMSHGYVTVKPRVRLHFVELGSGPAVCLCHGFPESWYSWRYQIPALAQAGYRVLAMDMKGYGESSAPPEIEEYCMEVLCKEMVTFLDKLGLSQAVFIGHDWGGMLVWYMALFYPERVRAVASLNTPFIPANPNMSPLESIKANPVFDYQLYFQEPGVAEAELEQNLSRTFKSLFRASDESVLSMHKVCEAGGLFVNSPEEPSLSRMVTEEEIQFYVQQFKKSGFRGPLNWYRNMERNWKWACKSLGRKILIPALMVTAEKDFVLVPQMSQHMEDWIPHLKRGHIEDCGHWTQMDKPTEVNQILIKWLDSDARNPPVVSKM
ASSAY_READOUT: log10(IC50) (log10 of the value in nM)

• CS(=O)(=O)c1ccc(-n2nc(CNC(=O)Nc3ccccc3)cc2-c2ccccc2)cc1 [compound 2322] = 1.67
• NS(=O)(=O)c1ccc(-n2nc(CCCNC(=O)NC34CC5CC(CC(C5)C3)C4)cc2-c2ccccc2)cc1 [compound 2326] = -0.30
• Cc1ccc(-c2cc(CCCNC(=O)Nc3cccc(C(F)(F)F)c3)nn2-c2ccc(S(N)(=O)=O)cc2)cc1 [compound 2152] = 1.00
• NS(=O)(=O)c1ccc(-n2nc(CCCNC(=O)Nc3cccc(C(F)(F)F)c3)cc2-c2ccccc2)cc1 [compound 2246] = 0.61
• NS(=O)(=O)c1ccc(-n2nc(CCCNC(=O)Nc3ccc(Cl)cc3)cc2-c2ccccc2)cc1 [compound 2327] = -0.10
• NS(=O)(=O)c1ccc(-n2nc(CCCNC(=O)Nc3ccccc3)cc2-c2ccccc2)cc1 [compound 2245] = -0.10
• NS(=O)(=O)c1ccc(-n2nc(CCCNC(=O)Nc3ccc(OC(F)(F)F)cc3)cc2-c2ccccc2)cc1 [compound 2329] = -0.30
